Give measured morphology score for each item. Keep answers brief.
System: Vero E6 infected with SARS-CoV-2
Test: morphology score (similarity to uninfected cells); higher = more like uninfected cells
Conditions: 24 h
Give bare numbers.

INSERT INTO results (compound, readout_number) VALUES
  ('COC(=O)[C@@H](N)CS [mecysteine] (10 µM)', -0.052);

Each compound below has a reported value. Please supply its morphology score.
1. N#Cc1c(N(CC(=O)O)CC(=O)O)sc(C(=O)O)c1CC(=O)O [Strontium Ranelate] (10 µM)
2. Cc1cc(I)ccc1Nc1c(C(=O)NOCC2CC2)cc(F)c(F)c1F (10 µM)
3. C=C1C(=O)O[C@@H]2C[C@@]3(C)CCC[C@H](C)C3=C[C@H]12 [alantolactone] (10 µM)
4. Nc1nc(Cl)nc2c1ncn2[C@@H]1O[C@H](CO)[C@@H](O)[C@@H]1F [clofarabine] (0.833333 µM)
5. COc1ccc(COc2cc3oc(=O)c4cc(C(C)O)ccc4c3cc2OC)cc1 (centres undefined) [palomid-529] (10 µM)
6. C1CCC(/N=C(\NC23CC4CC(CC(C4)C2)C3)N2CCOCC2)CC1 (10 µM)
7. CC(=O)Nc1c(I)cc(I)c(C(=O)O)c1I [acetriazoic-acid] (10 µM)
8. N=C(N)NN=C1C=CC(=NNC(N)=S)C=C1 [ambazone] (10 µM)

Reply:
1. -0.000723
2. 0.0652
3. 0.304
4. 0.11
5. 0.0689
6. -0.0395
7. 0.138
8. 0.129

----------
Would you kindly list inhibition of SARS-CoV-2 cytopathic effect for each of these compounds?
System: Vero E6 infected with SARS-CoV-2
Assay: inhibition of SARS-CoV-2 cytopathic effect; higher = more antiviral protection, active = above 15
Settings: 8.33 nM; 48 h
Numbers only, in %.

INSERT INTO results (compound, test_system, readout_number) VALUES
  ('CCCCCCCCc1ccc(CCC(N)(CO)CO)cc1', 'Vero E6 infected with SARS-CoV-2', 2.1);

Give inhibition of SARS-CoV-2 cytopathic effect for each of the items listed below.
1. CN(CCOc1ccc(C[C@H](Nc2ccccc2C(=O)c2ccccc2)C(=O)O)cc1)c1ccccn1
2. CC[C@@]1(O)C(=O)OCc2c1cc1n(c2=O)Cc2cc3cc(O)ccc3nc2-1 [10-hydroxycamptothecin]
3. O=C([O-])C(O)[C@H](O)[C@@H](O)[C@H](O)[C@H](O)CO.O=C([O-])C(O)[C@H](O)[C@@H](O)[C@H](O)[C@H](O)CO.[Ca+2] (some centres undefined) [calcium-gluceptate]

Reply:
1. 2.86
2. -0.13
3. -1.7

----------
Give measured inhibition of SARS-CoV-2 cytopathic effect for each item. Keep answers brief.
System: Vero E6 infected with SARS-CoV-2
Assay: inhibition of SARS-CoV-2 cytopathic effect; higher = more antiviral protection, active = above 15
Conditions: 1 nM; 48 h
Give bare numbers, in %.

The cases that follow already have their inhibition of SARS-CoV-2 cytopathic effect on record.
INSERT INTO assay_data (molecule, readout_number) VALUES
  ('Cn1c(=O)c2c(ncn2CCOC(=O)C(C)(C)Oc2ccc(Cl)cc2)n(C)c1=O [etofylline-clofibrate]', 4.94),
  ('CC1CCc2cc(F)cc3c(=O)c(C(=O)O)cn1c23 (stereo not given)', -0.77);

For every item in the list below, what is its measured inhibition of SARS-CoV-2 cytopathic effect?
1. CN(C)Cc1c(C(=O)NCCOc2ccc(C(=O)NO)cc2)oc2ccccc12
2. CCCN1C[C@H](CSC)C[C@@H]2c3cccc4[nH]cc(c34)C[C@H]21 [pergolide]
3. O=C1Nc2ccc(Cl)c3c2C1(CCCCN1CC=C(c2ccc(Cl)cc2)CC1)CCC3 (stereo not given)

Reply:
-1.08
-0.15
0.36
